Please provide measured pIC50 for the entries that follow.
# Tested on: mouse hippocampal cell line (Ht22)
# experimental-protocol: Inhibition of glutamate-induced non-apoptotic cell death (Ht22/GLU, Example B.2)
# Format: cell-based
# condition-summary: HT-22, glutamate-induced non-apoptotic cell death, Ht22 cells, read-out: Ht22/GLU
pIC50: −log10 of the molar value.

>  <compound>
Clc1cccc(CNC2=Nc3ccccc3NC23CCCNCC3)c1 (centres unmarked) [N-185]

>  <experimental-system>
mouse hippocampal cell line (Ht22)

>  <result>
> 6.30

$$$$

Turning now to a further record.
O=S1(=O)CCC2(CC1)Nc1ccccc1N=C2NCc1cccc(Cl)c1 [O/S-370] yielded pIC50 of > 5.30
